target: Gal(b1-4)GlcNAc(b1-3)Gal(b1-4)GlcNAc(b1-3)Gal(b1-4)GlcNAc; assay: glycan array binding signal (z-score within array); higher = stronger binding; conditions: glycan notation: IUPAC condensed, linker removed
Many of the other results were omitted from the sample, so the strongest signals are more common in it than they were.
propertyMeasured: glycan array binding signal (z-score)
When you answer, write just the number.

Summary for this binder, NakA (Mycobacterium tuberculosum) (protein) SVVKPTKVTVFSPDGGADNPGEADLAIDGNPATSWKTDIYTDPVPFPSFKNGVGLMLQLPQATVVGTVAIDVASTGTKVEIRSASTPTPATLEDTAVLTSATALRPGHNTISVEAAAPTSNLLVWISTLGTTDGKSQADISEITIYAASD : glycan array binding signal (z-score) is -0.502

Reported glycan array binding signal (z-score) for HA-61200 (Pseudomonas aeruginosa), Q02SP8_PSEAB (protein) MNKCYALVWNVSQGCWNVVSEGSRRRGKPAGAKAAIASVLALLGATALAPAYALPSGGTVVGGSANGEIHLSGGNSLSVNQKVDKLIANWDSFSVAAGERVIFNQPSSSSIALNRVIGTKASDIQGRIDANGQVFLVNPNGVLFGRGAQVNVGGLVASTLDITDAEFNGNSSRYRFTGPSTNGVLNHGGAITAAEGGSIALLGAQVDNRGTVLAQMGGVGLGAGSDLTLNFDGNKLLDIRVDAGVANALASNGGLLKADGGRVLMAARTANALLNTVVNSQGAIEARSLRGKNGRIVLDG was -0.492

Note to self: glycan array binding signal (z-score) recorded for SSA (Sclerotinia sclerotiorum), A7XUK7 (protein) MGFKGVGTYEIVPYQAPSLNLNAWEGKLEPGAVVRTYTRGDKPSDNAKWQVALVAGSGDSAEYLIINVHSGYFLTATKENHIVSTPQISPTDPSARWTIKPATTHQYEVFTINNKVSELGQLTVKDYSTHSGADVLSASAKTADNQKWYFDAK was -0.142
